molecular target: UniProtKB I6Y9J2; assay: Fluorescence-based (fluorogenic probe 1) inhibition assay for LdtMt2; format: biochemical; conditions: IC50 (μM, mean ± SD) 10 min, 10 min pre-incubation prior to addition of fluorogenic probe 1; LdtMt2 100 nM, probe 1 25 μM
Sequence (I6Y9J2 56-408): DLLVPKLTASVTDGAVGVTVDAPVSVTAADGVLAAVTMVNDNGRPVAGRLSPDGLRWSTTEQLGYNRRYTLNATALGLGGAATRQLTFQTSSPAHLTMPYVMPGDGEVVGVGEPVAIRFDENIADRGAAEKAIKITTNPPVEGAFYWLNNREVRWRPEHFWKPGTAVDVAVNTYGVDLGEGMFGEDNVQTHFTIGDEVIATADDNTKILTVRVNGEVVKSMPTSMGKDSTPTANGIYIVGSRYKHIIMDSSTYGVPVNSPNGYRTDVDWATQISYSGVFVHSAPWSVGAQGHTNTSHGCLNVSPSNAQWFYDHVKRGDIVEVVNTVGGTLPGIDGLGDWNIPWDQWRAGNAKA
readoutKind: log10 IC50 (log10 of the value in µM)

compound	log10 IC50
O=[Se](O)c1ccccc1	2.13
c1ccc(SSc2ccccn2)nc1	0.73
Cl[Se]c1ccccc1	1.39
Br[Se]c1ccccc1	0.70
CN(C)C(=S)SSC(=S)N(C)C	0.47
CCC(C)SSc1ncc[nH]1 (stereo not shown)	0.98
O=c1c2ccccc2[se]n1-c1ccccc1	-0.80
